Listing of recorded IC50 by entry.
test system: NCI-H358 (K-Ras G12C); test: CellTiter-Glo cell viability assay, NCI-H358; type: cell-based, human; conditions: Homo sapiens, NCI-H358, 120 h, NCI-H358, 5-day treatment; class symbols; read-out: Additional H358 Cell Viability assay data (K-Ras G12C, IC50)

C=CC(=O)N1CCOC2(CCN(C(=O)N(C)[C@H](C(=O)N[C@H]3Cc4nsc(n4)-c4ccc5c(c4)c(c(-c4cccnc4[C@H](C)OC)n5CC)CC(C)(C)COC(=O)[C@@H]4CCCN(N4)C3=O)C(C)C)CC2)C1 (atropisomer, axis not shown) | 10 to 100 nM
C=CC(=O)N1CC[C@H](C(=O)N(C)[C@H](C(=O)N[C@H]2Cc3cc(N)cc(c3)-c3ccc4c(c3)c(c(-c3ccccc3CCOC)n4CC)CC(C)(C)COC(=O)[C@@H]3CCCN(N3)C2=O)C(C)C)C1 | > 1000 nM
C=CC(=O)N(C)C1CN(C(=O)N(C)[C@H](C(=O)N[C@H]2Cc3nc(cs3)-c3ccc4c(c3)c(c(-c3cccnc3[C@H](C)OC)n4CC)CC(C)(C)COC(=O)[C@@H]3CCCN(N3)C2=O)C(C)C)C1 (atropisomer, axis not shown) | < 10 nM
C=CC(=O)NC[C@@H]1CCN1C(=O)N(C)[C@H](C(=O)N[C@H]1Cc2nc(cs2)-c2ccc3c(c2)c(c(-c2cccnc2[C@H](C)OC)n3CC)CC(C)(C)COC(=O)[C@@H]2CCCN(N2)C1=O)C(C)C (atropisomer, axis not shown) | 10 to 100 nM

Tell me IC50 reported for C=CC(=O)N1CCO[C@H]2CN(C(=O)N(C)[C@H](C(=O)N[C@H]3Cc4nc(n(C)n4)-c4ccc5c(c4)c(c(-c4cccnc4[C@H](C)OC)n5CC(F)(F)F)CC(C)(C)COC(=O)[C@@H]4CCCN(N4)C3=O)C(C)C)C[C@H]21 (atropisomer, axis not shown)
10 to 100 nM

* * *

target: NRAS G12C (Homo sapiens (Human), UniProt P01111+P62937, G12C); test: Ras-Raf (BRAF RBD) disruption / FRET / MOA assay, NRAS G12C; format: biochemical; conditions: read-out: IC50* NRAS G12C FRET data
Sequence (P01111 whole entry G12C, one chain of several): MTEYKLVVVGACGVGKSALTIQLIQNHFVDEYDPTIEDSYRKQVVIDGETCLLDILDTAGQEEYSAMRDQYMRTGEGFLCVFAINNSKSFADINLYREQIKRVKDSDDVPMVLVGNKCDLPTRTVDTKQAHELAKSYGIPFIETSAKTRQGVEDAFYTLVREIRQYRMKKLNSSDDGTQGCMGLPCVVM
Value kind: IC50

Tell me IC50 reported for CCn1c(-c2cccnc2[C@H](C)OC)c2c3cc(ccc31)-c1cc(O)cc(c1)C[C@H](NC(=O)[C@H](C(C)C)N(C)C(=O)[C@H]1CCN(C(=O)C#C[C@@H]3CCCN3C)C1)C(=O)N1CCC[C@H](N1)C(=O)OCC(C)(C)C2 (atropisomer, axis not shown) [Example A247]
< 10 nM

Tell me IC50 reported for C=CC(=O)N1CC2(CCN2C(=O)N(C)[C@H](C(=O)N[C@H]2Cc3cccc(c3)-c3ccc4c(c3)c(c(-c3cccnc3[C@H](C)OC)n4CC)CC(C)(C)COC(=O)[C@@H]3CCCN(N3)C2=O)C(C)C)C1 (atropisomer, axis not shown) [Example A684]
< 10 nM

Tell me IC50 reported for C=CC(=O)Nc1ncc(C(=O)N(C)[C@H](C(=O)N[C@H]2Cc3cccc(c3)-c3ccc4c(c3)c(c(-c3cccnc3[C@H](C)OC)n4CC)CC(C)(C)COC(=O)[C@@H]3CCCN(N3)C2=O)C(C)C)n1C (atropisomer, axis not shown) [Example A474]
< 10 nM

Tell me IC50 reported for C=CC(=O)N1CC[C@@]2(CCN(C(=O)N(C)[C@H](C(=O)N[C@H]3Cc4nc(cs4)-c4ccc5c(c4)c(c(-c4cccnc4[C@H](C)OC)n5CC)CC(C)(C)COC(=O)[C@@H]4CCCN(N4)C3=O)C(C)C)C2)C1 (atropisomer, axis not shown) [Example A367]
10 to 100 nM

Tell me IC50 reported for C=CC(=O)N1CC[C@H](C(=O)N(C)[C@H](C(=O)N[C@H]2Cc3cc(CF)cc(c3)-c3ccc4c(c3)c(c(-c3cccnc3[C@H](C)OC)n4CC)CC(C)(C)COC(=O)[C@@H]3CCCN(N3)C2=O)C(C)C)C1 (atropisomer, axis not shown) [Example A503]
10 to 100 nM

Tell me IC50 reported for C=CC(=O)N1CC2(CCN(C(=O)N(C)[C@H](C(=O)N[C@H]3Cc4nc(cs4)-c4ccc5c(c4)c(c(-c4cccnc4[C@H](C)OC)n5CC)CC(C)(C)COC(=O)[C@@H]4CCCN(N4)C3=O)C(C)C)CC2)C1 (atropisomer, axis not shown) [Example A394]
10 to 100 nM

Tell me IC50 reported for C=CC(=O)N1CC[C@H](C(=O)N(C)[C@H](C(=O)N[C@H]2CC3=NC=C(O3)c3ccc4c(c3)c(c(-c3cccnc3[C@H](C)OC)n4CC)CC(C)(C)COC(=O)[C@@H]3CCCN(N3)C2=O)C(C)C)C1 (atropisomer, axis not shown) [Example A278]
100 to 1000 nM

Tell me IC50 reported for C=CC(=O)N1CCN(C(=O)N(C)[C@H](C(=O)N[C@H]2Cc3nc(cs3)-c3ccc4c(c3)c(c(-c3cccnc3[C@H](C)OC)n4CC)CC(C)(C)COC(=O)[C@@H]3CCCN(N3)C2=O)C(C)C)C[C@@H]1C (atropisomer, axis not shown) [Example A433]
10 to 100 nM

* * *

target: K-Ras G13C (Homo sapiens (Human), UniProt P01116+P62937, G13C); assay: Ras-Raf (BRAF RBD) disruption / FRET / MOA assay, KRAS G13C; format: biochemical; conditions: KRAS G13C; Ras-Raf disruption/FRET/MOA assay; read-out: IC50* KRAS G13C FRET data
Sequence (P01116-2 other isoform, or with tags, fused parts or gaps G13C, one chain of several): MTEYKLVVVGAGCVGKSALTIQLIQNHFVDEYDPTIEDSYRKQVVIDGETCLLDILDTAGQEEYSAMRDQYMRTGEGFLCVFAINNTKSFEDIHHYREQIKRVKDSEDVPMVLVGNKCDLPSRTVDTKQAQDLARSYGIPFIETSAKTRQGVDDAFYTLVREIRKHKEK
Value kind: IC50

C=CS(=O)(=O)N1CCC2(CCN([C@H](C(=O)N[C@H]3Cc4cc(O)cc(c4)-c4ccc5c(c4)c(c(-c4cccnc4[C@H](C)OC)n5CC)CC(C)(C)COC(=O)[C@@H]4CCCN(N4)C3=O)C(C)C)C2=O)C1 (some centres unmarked) | < 0.01 µM

Tell me IC50 reported for C=CC(=O)N1CC[C@H](C(=O)N(C)[C@H](C(=O)N[C@H]2Cc3cc(OC4O[C@H](CO)[C@@H](O)[C@H](O)[C@H]4O)cc(c3)-c3ccc4c(c3)c(c(-c3cccnc3COC)n4CC)CC(C)(C)COC(=O)[C@@H]3CCCN(N3)C2=O)C(C)C)C1 (some centres unmarked)
> 10 µM

* * *

target: KRAS G12D (Homo sapiens (Human), UniProt P01116+P62937, G12D); assay: Ras-Raf (BRAF RBD) disruption / FRET / MOA assay, KRAS G12D; type: biochemical; details: Ras-Raf disruption/FRET/MOA assay; class symbols; read-out: KRAS G12D FRET data IC50
Sequence (P01116-2 other isoform, or with tags, fused parts or gaps G12D): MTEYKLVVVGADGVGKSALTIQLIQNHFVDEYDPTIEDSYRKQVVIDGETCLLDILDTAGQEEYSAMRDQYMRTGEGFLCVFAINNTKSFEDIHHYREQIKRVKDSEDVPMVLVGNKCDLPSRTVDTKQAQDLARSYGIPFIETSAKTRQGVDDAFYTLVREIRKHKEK
Sequence (P62937 whole entry): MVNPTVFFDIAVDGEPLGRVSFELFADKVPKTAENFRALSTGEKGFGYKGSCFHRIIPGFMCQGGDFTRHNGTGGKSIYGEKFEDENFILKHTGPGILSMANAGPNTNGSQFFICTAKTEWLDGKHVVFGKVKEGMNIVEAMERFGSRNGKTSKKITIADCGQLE
pIC50: −log10 of the molar value.
Value kind: pIC50

Examples with their reported pIC50 follow.
C=CC(=O)N1CCOC2(CCN(C(=O)N(C)[C@H](C(=O)N[C@H]3Cc4nc(cs4)-c4ccc5c(c4)c(c(-c4cccnc4[C@H](C)OC)n5CC)CC(C)(C)COC(=O)[C@@H]4CCCN(N4)C3=O)C(C)C)CC2)C1 (atropisomer, axis not shown) | 5.00 to 6.00
C=CC(=O)N1CC[C@H](C(=O)N(C)[C@H](C(=O)N[C@H]2Cc3cc(O)cc(c3)-c3ccc4c(c3)c(c(-c3ccc(CN5CC[C@@H](O)C5)cc3)n4CC)CC(C)(C)COC(=O)[C@@H]3CCCN(N3)C2=O)C(C)C)C1 | < 5.00
C=CC(=O)N(C)[C@H]1C[C@@H](N(C)C(=O)N(C)[C@H](C(=O)N[C@H]2Cc3nc(cs3)-c3ccc4c(c3)c(c(-c3cccnc3[C@H](C)OC)n4CC)CC(C)(C)COC(=O)[C@@H]3CCCN(N3)C2=O)C(C)C)C1 (atropisomer, axis not shown) | 6.00 to 7.00
C=CS(=O)(=O)N1CCC2(CCN([C@H](C(=O)N[C@H]3Cc4cc(O)cc(c4)-c4ccc5c(c4)c(c(-c4cccnc4[C@H](C)OC)n5CC)CC(C)(C)COC(=O)[C@@H]4CCCN(N4)C3=O)C(C)C)C2=O)C1 (some centres unmarked) | 6.00 to 7.00
C=CC(=O)N(C)[C@H]1CCN(C(=O)N(C)[C@H](C(=O)N[C@H]2Cc3nc(cs3)-c3ccc4c(c3)c(c(-c3cccnc3[C@H](C)OC)n4CC)CC(C)(C)COC(=O)[C@@H]3CCCN(N3)C2=O)C(C)C)C1 (atropisomer, axis not shown) | 6.00 to 7.00

Tell me pIC50 reported for C=CC(=O)N1C[C@H](C)N(C(=O)N(C)[C@H](C(=O)N[C@H]2Cc3nc(cs3)-c3ccc4c(c3)c(c(-c3cccnc3[C@H](C)OC)n4CC)CC(C)(C)COC(=O)[C@@H]3CCCN(N3)C2=O)C(C)C)C[C@H]1C (atropisomer, axis not shown)
5.00 to 6.00

Tell me pIC50 reported for CCn1c(-c2cccnc2[C@H](C)OC)c2c3cc(ccc31)-c1cccc(c1)C[C@H](NC(=O)[C@H](C(C)C)N(C)C(=O)C1(F)CCN(C(=O)/C=C/CN(C)C)CC1)C(=O)N1CCC[C@H](N1)C(=O)OCC(C)(C)C2 (atropisomer, axis not shown)
6.00 to 7.00

Tell me pIC50 reported for C=CC(=O)N1CC(OCC(C(=O)N[C@H]2Cc3cc(cc(C(F)F)c3)-c3ccc4c(c3)c(c(-c3cccnc3[C@H](C)OC)n4CC(F)(F)F)CC(C)(C)COC(=O)[C@@H]3CCCN(N3)C2=O)C(C)C)C1 (mixture of isomers)
< 5.00
